Form field: melting point (one value per entry).
Where a name gives a salt, the structure may show the parent alone.

Example cases with answers are listed next.
Compound | Result value
CC(c1oc2cccc(F)c2c(=O)c1-c1cccc(F)c1)n1nc(C#CCO)c2c(N)ncnc21 (stereo not shown) [Example 66] | 220 to 222 °C
Cc1cccc2oc([C@H](C)n3nc(-c4ccc(OC(C)C)c(F)c4)c4c(N)ncnc43)c(-c3ccccc3)c(=O)c12 (single isomer, unassigned) [Example 137] | 208 to 210 °C
CC(C)C(=O)Nc1ccc(-c2nn(C(C)c3oc4cccc(F)c4c(=O)c3-c3ccc(F)cc3)c3ncnc(N4CCOCC4)c23)cc1F (stereo not shown) [Example 86] | 165 to 167 °C
CC(C)Oc1ccc(-c2nn(C(C)c3oc4cccc(F)c4c(=O)c3-c3cccc(F)c3)c3ncnc(N(C)C)c23)cc1F (stereo not shown) [Example 83] | 122 to 124 °C

Measured melting point of CC(C)Oc1ccc(-c2nn(C(C)c3oc4cccc(F)c4c(=O)c3-c3cccc(F)c3)c3ncnc(N4CCOCC4)c23)cc1F (racemic) [Example 116] : 136 to 138 °C

Measured melting point of CNc1ncnc2c1c(-c1ccc(OC(C)C)c(F)c1)nn2C(C)c1oc2cccc(F)c2c(=O)c1-c1cccc(F)c1 (stereo not shown) [Example 84] : 193 to 196 °C

Measured melting point of CC(c1oc2cccc(F)c2c(=O)c1-c1cccc(F)c1)n1nc(-c2ccc(N3CCOCC3)c(Cl)c2)c2c(N)ncnc21 (single isomer, unassigned) [Example 127] : 260 to 262 °C

Measured melting point of CC(c1oc2cccc(F)c2c(=O)c1-c1cccc(F)c1)n1cnc2c(N)nc(F)nc21 (stereo not shown) (as salt: potassium) [Example 106] : 255 to 258 °C

Measured melting point of CC(c1oc2cccc(F)c2c(=O)c1-c1cccc(F)c1)n1nc(-c2ccc(CNS(C)(=O)=O)cc2)c2c(N)ncnc21 (stereo not shown) [Example 55] : 252 to 255 °C

Measured melting point of CC(C)C(=O)Nc1ccc(-c2nn(C(C)c3oc4cccc(F)c4c(=O)c3-c3cccc(F)c3)c3ncnc(N)c23)cc1 (stereo not shown) [Example 48] : 154 to 157 °C

Measured melting point of CC(c1oc2cccc(F)c2c(=O)c1-c1cccc(F)c1)n1nc(-c2ccc(OC3COC3)c(F)c2)c2c(N)ncnc21 (stereo not shown) [Example 46] : 235 to 237 °C

Measured melting point of CC(=O)Nc1ccc(-c2nn(C(C)c3oc4cccc(F)c4c(=O)c3-c3cccc(F)c3)c3ncnc(N)c23)cc1F (stereo not shown) [Example 82] : 220 to 223 °C

Measured melting point of CC(c1oc2cccc(F)c2c(=O)c1-c1cccc(F)c1)n1nc(-c2ccc(-c3nnc(N)s3)cc2)c2c(N)ncnc21 (stereo not shown) [Example 77] : 202 to 205 °C

====

biological target: PI3kβ (Homo sapiens, UniProt P42338); assay: Fluorescent (HTRF) determination of PI3 kinase enzyme activity, PI3Kβ; type: biochemical; conditions: 1 uM
Sequence (P42338 whole entry): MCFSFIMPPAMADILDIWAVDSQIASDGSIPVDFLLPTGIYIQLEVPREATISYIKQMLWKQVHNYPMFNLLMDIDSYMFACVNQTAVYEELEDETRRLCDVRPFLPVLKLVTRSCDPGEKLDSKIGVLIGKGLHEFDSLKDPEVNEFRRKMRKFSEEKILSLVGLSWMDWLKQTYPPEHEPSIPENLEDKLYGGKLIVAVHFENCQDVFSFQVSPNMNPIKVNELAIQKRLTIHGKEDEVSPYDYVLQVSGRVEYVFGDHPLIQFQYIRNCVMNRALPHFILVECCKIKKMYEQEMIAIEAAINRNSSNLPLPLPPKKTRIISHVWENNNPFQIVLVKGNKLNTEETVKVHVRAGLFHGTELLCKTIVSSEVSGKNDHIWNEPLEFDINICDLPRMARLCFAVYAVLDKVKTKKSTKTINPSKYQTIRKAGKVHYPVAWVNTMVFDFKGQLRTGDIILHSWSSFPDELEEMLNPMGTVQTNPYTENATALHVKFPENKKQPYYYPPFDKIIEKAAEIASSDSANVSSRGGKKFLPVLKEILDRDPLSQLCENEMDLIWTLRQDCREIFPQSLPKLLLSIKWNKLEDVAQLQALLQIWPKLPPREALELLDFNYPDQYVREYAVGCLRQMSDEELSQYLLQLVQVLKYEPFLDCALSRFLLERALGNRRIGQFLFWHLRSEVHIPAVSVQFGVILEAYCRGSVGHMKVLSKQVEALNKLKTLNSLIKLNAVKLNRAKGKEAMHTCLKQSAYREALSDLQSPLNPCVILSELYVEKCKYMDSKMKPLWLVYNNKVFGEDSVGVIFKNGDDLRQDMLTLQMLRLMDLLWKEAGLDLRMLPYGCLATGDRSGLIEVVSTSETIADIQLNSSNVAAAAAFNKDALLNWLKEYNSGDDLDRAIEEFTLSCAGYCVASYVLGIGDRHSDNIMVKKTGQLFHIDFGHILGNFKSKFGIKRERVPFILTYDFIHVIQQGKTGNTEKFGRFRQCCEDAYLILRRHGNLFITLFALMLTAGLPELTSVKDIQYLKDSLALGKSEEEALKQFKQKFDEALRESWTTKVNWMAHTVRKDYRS
Sequence (P27986 whole entry partner): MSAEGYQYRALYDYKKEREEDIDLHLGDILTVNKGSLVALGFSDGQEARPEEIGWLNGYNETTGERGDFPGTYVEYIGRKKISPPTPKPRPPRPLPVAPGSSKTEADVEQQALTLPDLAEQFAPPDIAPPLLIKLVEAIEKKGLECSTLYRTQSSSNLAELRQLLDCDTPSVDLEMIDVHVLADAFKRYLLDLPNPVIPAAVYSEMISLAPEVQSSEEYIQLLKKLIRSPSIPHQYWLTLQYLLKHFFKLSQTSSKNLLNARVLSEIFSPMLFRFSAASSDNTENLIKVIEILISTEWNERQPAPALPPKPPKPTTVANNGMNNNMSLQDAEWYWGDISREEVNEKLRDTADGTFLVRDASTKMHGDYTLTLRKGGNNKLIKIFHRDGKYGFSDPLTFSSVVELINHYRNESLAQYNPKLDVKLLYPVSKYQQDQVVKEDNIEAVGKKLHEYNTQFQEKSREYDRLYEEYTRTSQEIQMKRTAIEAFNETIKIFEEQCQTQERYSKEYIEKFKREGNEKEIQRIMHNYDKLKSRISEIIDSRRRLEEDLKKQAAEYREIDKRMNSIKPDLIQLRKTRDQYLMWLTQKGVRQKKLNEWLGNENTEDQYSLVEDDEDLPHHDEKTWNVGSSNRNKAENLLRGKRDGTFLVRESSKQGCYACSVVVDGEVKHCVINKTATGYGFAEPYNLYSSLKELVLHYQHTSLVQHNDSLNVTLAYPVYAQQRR
Reported property: % inhibition (PI3kβ) 1 uM

Compound | % inhibition (PI3kβ) 1 uM
CC(c1oc2cccc(F)c2c(=O)c1-c1cccc(F)c1)n1nc(-c2ccc(N3CCOCC3)c(Cl)c2)c2c(N)ncnc21 (racemic) [Example 126] | C (C=>25 to 50%)
CC(C)Oc1ccc(-c2nn(C(C)c3oc4cccc(F)c4c(=O)c3-c3ccccc3)c3ncnc(N)c23)cc1F (stereo not drawn) [Example 13] | D (D=0 to 25%)
Cc1cc(-c2nn(C(C)c3oc4cccc(F)c4c(=O)c3-c3cccc(F)c3)c3ncnc(N)c23)ccc1OC(C)C (single isomer, unassigned; (-)) [Example 115] | D (D=0 to 25%)
CC(c1oc2cccc(F)c2c(=O)c1-c1cccc(F)c1)n1nc(-c2ccc(N3CCOCC3)c(Cl)c2)c2c(N)ncnc21 (stereo not drawn) [Example 113] | D (D=0 to 25%)

Measured % inhibition (PI3kβ) 1 uM of CC(C)Oc1ccc(-c2nn(C(C)c3oc4cccc(F)c4c(=O)c3-c3ccc(F)cc3)c3ncnc(N)c23)cc1F (stereo not drawn) [Example 12] : C (C=>25 to 50%)

====

target: UniProtKB O00329; experiment: Fluorescent (HTRF) determination of PI3 kinase enzyme activity, PI3Kδ; assay type: biochemical
Reported property: IC50

Example cases with answers are listed next.
Compound | IC50
CC(c1oc2cccc(F)c2c(=O)c1-c1cccc(F)c1)n1nc(-c2cccc(NS(C)(=O)=O)c2)c2c(N)ncnc21 (stereo not drawn) | 50 to 100 nM
Cc1n[nH]c2cc(-c3nn(C(C)c4oc5cccc(F)c5c(=O)c4-c4cccc(F)c4)c4ncnc(N)c34)ccc12 (stereo not drawn) | ≤ 50 nM
CC(c1oc2cccc(F)c2c(=O)c1-c1cccc(F)c1)n1nc(-c2ccc(N3CCOCC3)c(F)c2)c2c(N)ncnc21 (single isomer, unassigned) | 100 to 300 nM
Cc1n[nH]c2cc(-c3nn([C@H](C)c4oc5cccc(F)c5c(=O)c4-c4cccc(F)c4)c4ncnc(N)c34)ccc12 | 300 to 500 nM
CC(C)Oc1ccc(-c2nn(C(C)c3oc4cccc(F)c4c(=O)c3-c3cccc(F)c3)c3ncnc(N)c23)cc1F (stereo not drawn) [Example 6] | ≤ 50 nM

Turning now to a further compound:
Measured IC50 of CC(c1oc2cccc(F)c2c(=O)c1-c1cccc(F)c1)n1nc(-c2ccc(N3CCOCC3)c(Cl)c2)c2c(N)ncnc21 (stereo not drawn) : ≤ 50 nM

====

target: PI3kβ (Homo sapiens, UniProt P42338); assay: Fluorescent (HTRF) determination of PI3 kinase enzyme activity, PI3Kβ; assay type: biochemical; conditions: 1 uM
Reported property: inhibition at 1 µM

Compound | inhibition at 1 µM
CNS(=O)(=O)c1ccc(-c2nn(C(C)c3oc4cccc(F)c4c(=O)c3-c3cccc(F)c3)c3ncnc(N)c23)cc1 (stereo not shown) | 50 to 75%
CC(c1oc2cccc(F)c2c(=O)c1-c1cccc(F)c1)n1cnc2c(N(C)C)ncnc21 (stereo not shown) [Example 110] | 25 to 50%

Measured inhibition at 1 µM of CC(C)Nc1ccc(-c2nn(C(C)c3oc4cccc(F)c4c(=O)c3-c3cccc(F)c3)c3ncnc(N)c23)cc1F (stereo not shown) : 25 to 50%

Measured inhibition at 1 µM of CC(c1oc2cccc(F)c2c(=O)c1-c1cccc(F)c1)n1nc(N(C)C)c2c(N)ncnc21 (stereo not shown) : 25 to 50%

Measured inhibition at 1 µM of CC(c1oc2cccc(F)c2c(=O)c1-c1cccc(F)c1)n1nc(-c2cn[nH]c2)c2c(N)ncnc21 (stereo not shown) : 0 to 25%

Measured inhibition at 1 µM of COC(=O)c1ccc(-c2nn(C(C)c3oc4cccc(F)c4c(=O)c3-c3cccc(F)c3)c3ncnc(N)c23)c(F)c1 (stereo not shown) : 25 to 50%

Measured inhibition at 1 µM of CC(c1oc2cccc(F)c2c(=O)c1-c1ccc(F)cc1)n1ncc2c(N)ncnc21 (stereo not shown) : 0 to 25%

====

Target: PI3kδ (Homo sapiens, UniProt O00329)
Sequence (O00329 whole entry): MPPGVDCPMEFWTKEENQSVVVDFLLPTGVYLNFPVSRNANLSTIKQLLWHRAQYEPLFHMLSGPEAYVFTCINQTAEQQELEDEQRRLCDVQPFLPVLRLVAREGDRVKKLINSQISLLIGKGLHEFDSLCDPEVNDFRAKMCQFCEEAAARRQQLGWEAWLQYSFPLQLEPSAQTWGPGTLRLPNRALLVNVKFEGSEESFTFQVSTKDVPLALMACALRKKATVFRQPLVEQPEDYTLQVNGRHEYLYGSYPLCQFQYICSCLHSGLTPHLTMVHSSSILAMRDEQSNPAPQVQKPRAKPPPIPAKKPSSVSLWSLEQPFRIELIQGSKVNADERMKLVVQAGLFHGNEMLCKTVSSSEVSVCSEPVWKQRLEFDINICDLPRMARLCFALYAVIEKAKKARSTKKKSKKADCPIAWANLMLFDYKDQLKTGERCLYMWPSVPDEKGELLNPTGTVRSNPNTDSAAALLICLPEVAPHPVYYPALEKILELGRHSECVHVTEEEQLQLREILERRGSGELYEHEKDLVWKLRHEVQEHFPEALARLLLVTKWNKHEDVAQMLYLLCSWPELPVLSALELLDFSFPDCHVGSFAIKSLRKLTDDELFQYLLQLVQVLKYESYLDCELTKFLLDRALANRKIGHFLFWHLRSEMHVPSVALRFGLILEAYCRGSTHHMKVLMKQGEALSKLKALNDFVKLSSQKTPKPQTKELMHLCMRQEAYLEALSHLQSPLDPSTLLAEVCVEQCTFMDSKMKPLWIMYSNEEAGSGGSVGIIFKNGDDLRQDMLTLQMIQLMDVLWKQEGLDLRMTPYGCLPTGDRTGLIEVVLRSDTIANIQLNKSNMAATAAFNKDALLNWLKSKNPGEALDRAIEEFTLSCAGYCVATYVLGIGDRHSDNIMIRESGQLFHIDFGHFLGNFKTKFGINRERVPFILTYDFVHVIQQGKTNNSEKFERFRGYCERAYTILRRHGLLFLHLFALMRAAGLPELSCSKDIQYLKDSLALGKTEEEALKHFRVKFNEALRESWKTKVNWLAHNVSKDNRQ
Sequence (P27986 whole entry partner): as the sequence (P27986 whole entry partner) above
Test: Fluorescent (HTRF) determination of PI3 kinase enzyme activity, PI3Kδ
Assay type: biochemical
Settings: 100 nM (Examples 60-137)
Text: Assay 1: Fluorescent Determination of PI3Kinase Kinase Enzyme Activity Phosphoinositide 3 kinases (PI3K) belong to a class of lipid kinases that play a critical role in the regulation of several key cellular processes. […] The homogenous time resolved fluorescence (HTRF) assay allows detection of 3,4,5-triphosphate (PIP3) formed as a result of phosphorylation of phosphotidylinositol 4,5-biphosphate (PIP2) by PI3K isoforms such as α, β, γ or δ. […]
Form field: inhibition at 0.1 µM (one value per entry).

Example cases with answers are listed next.
Molecule | Result value
CC(c1oc2cccc(F)c2c(=O)c1-c1cccc(F)c1)n1nc(-c2ccc(-c3nnc(N)s3)cc2)c2c(N)ncnc21 (stereo not shown) | 50 to 75%
CCC(Nc1ncnc2[nH]cnc12)c1oc2cccc(F)c2c(=O)c1-c1ccccc1 (stereo not shown) | 0 to 25%
CCC(c1oc2cccc(F)c2c(=O)c1-c1cccc(F)c1)n1nc(-c2ccc(OC(C)C)c(F)c2)c2c(N)ncnc21 (stereo not shown) | 25 to 50%
CNc1ncnc2c1ncn2C(C)c1oc2cccc(F)c2c(=O)c1-c1cccc(F)c1 (stereo not shown) | 25 to 50%
CC(c1oc2cccc(F)c2c(=O)c1-c1cccc(F)c1)n1nc(-c2ccc(N3CCOCC3)c(F)c2)c2c(N)ncnc21 (racemic) | 25 to 50%
CC(c1oc2cccc(F)c2c(=O)c1-c1cccc(F)c1)n1cnc2c(N(C)C)ncnc21 (single isomer, unassigned) | 25 to 50%

Turning now to a further molecule:
Measured inhibition at 0.1 µM of CC(c1oc2cccc(F)c2c(=O)c1-c1ccc(F)cc1)n1nc(-c2ccc(OC(F)F)c(F)c2)c2c(N)ncnc21 (racemic) [Example 96] : 0 to 25%
